Reference source for all entries: paper PMC2248166

Subject of test: HLA B*0801 (Homo sapiens, UniProt P01889, A93T/A95T/D138N/E176V/E187T/K202T/Q94N/R180D/S35A/V36M/Y33D/Y91F)
Experiment summary: biochemical
Where a SMILES comes first, the peptide text is derived from it.
Consider the following molecules; for each one, report its IC50.
Provide the reading as a plain figure in pM.

In plain terms, CSCC[C@H](NC(=O)[C@H](Cc1ccccc1)NC(=O)CNC(=O)[C@@H](N)[C@@H](C)O)C(=O)N[C@@H](CCCNC(=N)N)C(=O)N[C@@H](Cc1ccccc1)C(=O)N[C@@H](Cc1ccccc1)C(=O)N[C@@H](CCC(N)=O)C(=O)N[C@@H](CC(C)C)C(=O)O [3102.0731] (H-TGFMRFFQL-OH) has a documented IC50 of 970

In plain terms, CC[C@H](C)[C@H](NC(=O)[C@@H](N)Cc1ccccc1)C(=O)N[C@@H](CCCNC(=N)N)C(=O)N[C@@H](Cc1ccc(O)cc1)C(=O)N[C@@H](CCCNC(=N)N)C(=O)N[C@@H](CCSC)C(=O)N[C@@H](Cc1c[nH]cn1)C(=O)N1CCC[C@H]1C(=O)N[C@@H](CCSC)C(=O)O [3102.0768] (H-FIRYRMHPM-OH) has a documented IC50 of 210

In plain terms, CC[C@H](C)[C@H](NC(=O)[C@H](CCCCN)NC(=O)[C@H](CC(C)C)NC(=O)[C@@H](NC(=O)[C@H](Cc1c[nH]cn1)NC(=O)[C@H](CCCCN)NC(=O)[C@H](CCCNC(=N)N)NC(=O)[C@H](CC(C)C)NC(=O)[C@@H](N)CC(C)C)[C@@H](C)O)C(=O)O [3102.0636] (H-LLRKHTLKI-OH) has a documented IC50 of 21000

* * *

Subject of test: HLA B*1503 (Homo sapiens, UniProt P01889, A329T/A93T/A95T/C349S/D201E/D98Y/E187L/E204Q/K202T/N87E/Q94N/R155S/R180L/S121R/S35A/V306I/V36M/Y140S/Y91S)
Experiment summary: biochemical
Where a SMILES comes first, the peptide text is derived from it.
Measured endpoint: pIC50
Please treat pIC50 as minus the base-10 logarithm of the molar concentration.

In plain terms, CSCC[C@H](NC(=O)[C@@H](N)CCCCN)C(=O)N[C@H](C(=O)N[C@@H](CCCNC(=N)N)C(=O)N[C@H](C(=O)N[C@@H](Cc1ccccc1)C(=O)N[C@@H](CC(N)=O)C(=O)N[C@@H](CCCCN)C(=O)N[C@@H](Cc1ccccc1)C(=O)O)C(C)C)[C@@H](C)O [3102.1188] (H-KMTRVFNKF-OH) has a documented pIC50 of 9.37

In plain terms, CC(C)C[C@H](NC(=O)[C@@H](N)C(C)C)C(=O)N[C@@H](Cc1ccccc1)C(=O)N[C@@H](CCC(=O)O)C(=O)N[C@H](C(=O)N[C@@H](Cc1ccccc1)C(=O)N[C@H](C(=O)N[C@H](C(=O)N[C@@H](Cc1ccccc1)C(=O)O)C(C)C)C(C)C)C(C)C [3102.0818] (H-VLFEVFVVF-OH) has a documented pIC50 of 8.31

In plain terms, CC(C)C[C@H](N)C(=O)N[C@@H](CCC(=O)O)C(=O)N[C@@H](Cc1ccccc1)C(=O)N[C@@H](CC(N)=O)C(=O)N[C@H](C(=O)N1CCC[C@H]1C(=O)N[C@@H](Cc1ccccc1)C(=O)N[C@H](C(=O)N[C@@H](Cc1ccccc1)C(=O)O)C(C)C)[C@@H](C)O [3102.1212] (H-LEFNTPFVF-OH) has a documented pIC50 of 8.00

In plain terms, CC(C)C[C@H](NC(=O)[C@H](C)N)C(=O)N[C@@H](CC(C)C)C(=O)N[C@@H](CCC(=O)O)C(=O)N[C@@H](CC(C)C)C(=O)N[C@@H](Cc1ccccc1)C(=O)N[C@@H](CC(N)=O)C(=O)N[C@@H](C)C(=O)N[C@@H](Cc1ccccc1)C(=O)O [3102.0961] (H-ALLELFNAF-OH) has a documented pIC50 of 9.62

In plain terms, CSCC[C@H](NC(=O)[C@H](CCCCN)NC(=O)[C@@H](N)CCCCN)C(=O)N[C@@H](CCC(N)=O)C(=O)N[C@@H](CO)C(=O)N[C@@H](Cc1ccc(O)cc1)C(=O)N[C@@H](CC(N)=O)C(=O)N[C@@H](CO)C(=O)N[C@H](C(=O)O)C(C)C [3102.1143] (H-KKMQSYNSV-OH) has a documented pIC50 of 8.55

In plain terms, CSCC[C@H](NC(=O)[C@@H](N)CCCCN)C(=O)N[C@@H](C)C(=O)N[C@@H](C)C(=O)N[C@@H](CC(=O)O)C(=O)N[C@@H](CCCNC(=N)N)C(=O)NCC(=O)N[C@@H](C)C(=O)N[C@@H](Cc1ccccc1)C(=O)O [3102.1255] (H-KMAADRGAF-OH) has a documented pIC50 of 8.60

In plain terms, CSCC[C@H](NC(=O)[C@H](CC(=O)O)NC(=O)[C@@H](NC(=O)[C@H](Cc1ccccc1)NC(=O)[C@H](Cc1c[nH]cn1)NC(=O)[C@H](CCSC)NC(=O)[C@H](CO)NC(=O)[C@H](CCC(N)=O)NC(=O)[C@@H](N)Cc1ccccc1)[C@@H](C)O)C(=O)O [3102.1283] (H-FQSMHFTDM-OH) has a documented pIC50 of 8.29
